Data provenance is paper PMC4336329.

Target: human ether-à-go-go-related gene (hERG) potassium channel (human);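 also: peak tail current of the secondary pulse compared with the same well before compound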
Sequence (Q12809 whole entry, looked up): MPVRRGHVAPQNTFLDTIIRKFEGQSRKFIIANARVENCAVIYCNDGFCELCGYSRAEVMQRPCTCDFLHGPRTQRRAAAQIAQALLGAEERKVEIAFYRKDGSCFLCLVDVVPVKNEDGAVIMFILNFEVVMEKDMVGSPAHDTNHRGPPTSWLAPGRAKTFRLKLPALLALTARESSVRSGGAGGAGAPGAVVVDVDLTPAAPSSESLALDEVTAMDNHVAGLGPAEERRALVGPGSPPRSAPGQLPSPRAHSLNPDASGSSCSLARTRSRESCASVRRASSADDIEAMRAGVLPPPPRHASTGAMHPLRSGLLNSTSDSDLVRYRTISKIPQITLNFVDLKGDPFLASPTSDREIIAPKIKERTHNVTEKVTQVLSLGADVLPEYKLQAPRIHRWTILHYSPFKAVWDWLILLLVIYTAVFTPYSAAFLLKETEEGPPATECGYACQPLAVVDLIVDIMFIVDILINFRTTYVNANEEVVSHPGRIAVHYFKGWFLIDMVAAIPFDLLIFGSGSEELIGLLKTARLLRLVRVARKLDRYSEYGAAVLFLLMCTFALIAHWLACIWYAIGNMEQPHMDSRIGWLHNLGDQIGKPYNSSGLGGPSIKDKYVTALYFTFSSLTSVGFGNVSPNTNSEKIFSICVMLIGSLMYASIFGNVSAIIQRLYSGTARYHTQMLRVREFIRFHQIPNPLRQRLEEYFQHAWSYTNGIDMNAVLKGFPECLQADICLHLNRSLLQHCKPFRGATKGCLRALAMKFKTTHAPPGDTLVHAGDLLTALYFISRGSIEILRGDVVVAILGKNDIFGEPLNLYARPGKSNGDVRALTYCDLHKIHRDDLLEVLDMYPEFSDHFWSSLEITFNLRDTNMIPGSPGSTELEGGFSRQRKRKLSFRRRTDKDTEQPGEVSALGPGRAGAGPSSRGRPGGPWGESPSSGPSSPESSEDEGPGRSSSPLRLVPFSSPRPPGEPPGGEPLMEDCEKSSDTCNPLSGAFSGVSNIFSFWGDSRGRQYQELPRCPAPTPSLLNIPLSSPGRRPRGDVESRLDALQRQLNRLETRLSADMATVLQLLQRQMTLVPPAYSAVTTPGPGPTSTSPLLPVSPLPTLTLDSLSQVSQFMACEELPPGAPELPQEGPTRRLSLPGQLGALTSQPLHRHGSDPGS
Test: primary screen, population patch clamp on CHO cells stably expressing hERG; higher = less effect of the substance
Experimental: Briefly, Chinese hamster ovary (CHO) cells stably expressing the hERG channel were dislodged from tissue culture flasks and dispensed into PPC plates. […] During the recording, background leak currents were estimated by a 100 ms step to -80 mV from an initial holding potential of -70 mV and subtracted from the subsequent current measurement. The campaign was conducted in two phases using slight differences in recording protocol. […]
In all, about 310,000 compounds went through this assay and about 14,000 (4.5%) showed an effect of 50% or more. Effects have a minus sign here. The sample as a whole holds a higher share of strong results than the screen did.
Entries and their hERG current change (%, negative = inhibition) at 10uM values follow.
Report only the number, with the unit % understood.

Cc1cc(C(=O)NCCCN2CCOCC2)n(-c2ccccc2)n1 ... 19.3

// switching to the query compound
Write down measured hERG current change (%, negative = inhibition) at 10uM (human ether-à-go-go-related gene (hERG) potassium channel (human)) for this compound. COc1ccc(CNS(=O)(=O)CCNC(=O)c2ccccc2)cc1
-4.36
